# tested_target: PPARα-LBD (Homo sapiens)
# Sequence (Q07869 200-468): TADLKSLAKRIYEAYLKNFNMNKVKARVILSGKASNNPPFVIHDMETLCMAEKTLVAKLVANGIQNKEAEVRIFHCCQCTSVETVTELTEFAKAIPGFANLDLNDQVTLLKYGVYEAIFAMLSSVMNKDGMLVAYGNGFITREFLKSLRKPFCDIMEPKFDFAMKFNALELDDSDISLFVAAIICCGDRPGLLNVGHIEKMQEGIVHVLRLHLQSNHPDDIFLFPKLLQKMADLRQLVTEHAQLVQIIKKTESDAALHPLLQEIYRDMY
# test_summary: TR-FRET PGC1α coactivator recruitment assay
# Assay type: biochemical
# Design: Human PPARα-LBD (amino acids 200–468); made in house; host or cells: Rosetta (DE3) pLysS (E. coli)
# test_conditions: PGC1α peptide, read-out: EC50, PGC1α recruitment to PPARα-LBD
attribute_measured: EC50 (µM)

• CSc1ccc(C(=O)/C=C/c2cc(C)c(OC(C)(C)C(=O)O)c(C)c2)cc1 = 6.93
• CCO[C@@H](Cc1ccc(OCCn2c(C)ccc2-c2ccc(SC)cc2)cc1)C(=O)O = 4.11
• O=C(O)CCCc1cc2cc(Cl)ccc2n1S(=O)(=O)c1ccc2ncsc2c1 = 10
• CCO[C@H](COc1ccc(C(F)(F)F)cc1)CSc1ccc(OCC(=O)O)c(C)c1 = 3.84
